# target.under.test: CXCL12_(1), constitutively monomeric CXCL12 variant (L55C/I58C) (UniProt P48061 22-93, L55C | I58C)
# Sequence (P48061 22-93 L76C/I79C): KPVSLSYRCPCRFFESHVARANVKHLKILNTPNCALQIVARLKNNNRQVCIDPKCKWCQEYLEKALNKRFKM
# assay.info: NMR titration
Recorded Kd values for a group of binders are listed next.
Quick reminder: number only, in µM, skip the unit.

# example entries with known answers
| binder | property | result.value |
| --- | --- | --- |
| Ac-ISIYTSD-NH2 [4ISIYTSD10, unsulfated Tyr7 peptide of CXCR4] | Kd | 1100 |
| ISIYTSD (HELM PEPTIDE1{[ac].I.S.I.[O=C([C@H](Cc1ccc(OS(=O)(=O)O)cc1)N[*:1])[*:2]].T.S.D.[am]}$$$$V2.0; SMILES CC[C@H](C)[C@H](NC(C)=O)C(=O)N[C@@H](CO)C(=O)N[C@H](C(=O)N[C@@H](Cc1ccc(OS(=O)(=O)O)cc1)C(=O)N[C@H](C(=O)N[C@@H](CO)C(=O)N[C@@H](CC(=O)O)C(N)=O)[C@@H](C)O)[C@@H](C)CC) [4ISIsYTSD10, sTyr7 sulfopeptide of CXCR4] | Kd | 6100 |
| Ac-SDNYTEE-NH2 [9SDNYTEE15, unsulfated Tyr12 peptide of CXCR4] | Kd | 2700 |
| SDNYTEE (HELM PEPTIDE1{[ac].S.D.N.[O=C([C@H](Cc1ccc(OS(=O)(=O)O)cc1)N[*:1])[*:2]].T.E.E.[am]}$$$$V2.0; SMILES CC(=O)N[C@@H](CO)C(=O)N[C@@H](CC(=O)O)C(=O)N[C@@H](CC(N)=O)C(=O)N[C@@H](Cc1ccc(OS(=O)(=O)O)cc1)C(=O)N[C@H](C(=O)N[C@@H](CCC(=O)O)C(=O)N[C@@H](CCC(=O)O)C(N)=O)[C@@H](C)O) [9SDNsYTEE15, sTyr12 sulfopeptide of CXCR4] | Kd | 1800 |
| SGDYDSM (HELM PEPTIDE1{[ac].S.G.D.[O=C([C@H](Cc1ccc(OS(=O)(=O)O)cc1)N[*:1])[*:2]].D.S.M.[am]}$$$$V2.0; SMILES CSCC[C@H](NC(=O)[C@H](CO)NC(=O)[C@H](CC(=O)O)NC(=O)[C@H](Cc1ccc(OS(=O)(=O)O)cc1)NC(=O)[C@H](CC(=O)O)NC(=O)CNC(=O)[C@H](CO)NC(C)=O)C(N)=O) [18SGDsYDSM24, sTyr21 sulfopeptide of CXCR4] | Kd | 1600 |

// switching to the query binder
IN: For Ac-SGDYDSM-NH2 [18SGDYDSM24, unsulfated Tyr21 peptide of CXCR4] , what is its reported Kd?
OUT: 1500
